system: CCRIS mutagenicity, Ames/micronucleus/aberration tests; assay: CCRIS mutagenicity studies; conditions: Test System: AMES SALMONELLA TYPHIMURIUM; Strain/Indicator: TA100; Metabolic Activation: MOUSE, LIVER, S-9; Method: PREINCUBATION
Activity calls are given as the source filed them. No rule for the calls is given here.
Write down the outcome that applies. Available outcomes: TRUE (active), FALSE (inactive)

molecule	target.desc	assigned.label
CC(=O)CN(CC(C)=O)N=O	CCRIS mutagenicity, Ames/micronucleus/aberration tests	TRUE
CC(O)CN(C)N=O (centres undefined)	CCRIS mutagenicity, Ames/micronucleus/aberration tests	TRUE
NC(=O)N(c1ccccc1)c1ccc(C(=O)O)cc1	CCRIS mutagenicity, Ames/micronucleus/aberration tests	FALSE

QUERY: Please state the recorded outcome for this molecule: `CCN(N=O)c1ccccc1`
RESULT: FALSE

----------
system: CCRIS mutagenicity, Ames/micronucleus/aberration tests; assay: CCRIS mutagenicity studies; conditions: Test System: AMES SALMONELLA TYPHIMURIUM; Strain/Indicator: TA98; Metabolic Activation: RAT, LIVER, S-9, AROCLOR; Method: PREINCUBATION
Active and inactive are the calls of the source. The rule behind the calls is not given here.
Please answer using one outcome listed in y = active, n = inactive

Observe how each entry below is paired with its result.
structure.string	assigned.label
CC=C(Cl)Cl	n
CCCC[N+](=O)[O-]	n
O=[N+]([O-])c1ccc(CO)c([N+](=O)[O-])c1	y

QUERY: Hi team, can someone confirm the assay call for `CN(CCC#N)c1ccc(N=Nc2ccc3ncsc3c2)cc1` ?
RESULT: y

----------
system: CCRIS mutagenicity, Ames/micronucleus/aberration tests; assay: CCRIS mutagenicity studies; conditions: Test System: AMES SALMONELLA TYPHIMURIUM; Strain/Indicator: TA1535; Metabolic Activation: NONE; Method: STANDARD PLATE
Active and inactive are the calls of the source. How the calls were made is not given here.
Use one of these outcomes when replying: yes (1) = active, no (0) = inactive

QUERY: // outcome(item) with item = `CC(C)CCC[C@@H](C)[C@H]1CC[C@H]2[C@@H]3C[C@@H]4O[C@@]45C[C@@H](O)CC[C@]5(C)[C@H]3CC[C@]12C`
RESULT: no (0)

QUERY: Recorded call for `Cc1cc(O)ccc1Cl` ?
RESULT: no (0)

QUERY: What did the test return for `CC(C)(Oc1ccc(C(=O)c2ccc(Cl)cc2)cc1)C(=O)O` ?
RESULT: no (0)

QUERY: Any idea what this test logged for `Nc1ccc(N=Nc2ccc3c(c2)C(=O)/C(=N/Nc2ccc(Nc4ccc(N/N=C5/C(=O)c6cc(N=Nc7ccc(N)cc7N)ccc6C=C5S(=O)(=O)O)cc4S(=O)(=O)O)cc2)C(S(=O)(=O)O)=C3)c(N)c1` ?
RESULT: no (0)

QUERY: // param item: `CC(C)C1=CC2=CC[C@@H]3[C@](C)(CCC[C@@]3(C)C(=O)O)[C@H]2CC1` ; yields the recorded call
RESULT: no (0)

QUERY: Which outcome did this test record for the compound `CC(=O)Nc1snc2ccccc12` ?
RESULT: no (0)

QUERY: Test call for this compound, please: `O=C(O)CC[C@H](NC(=O)COc1cc(Cl)c(Cl)cc1Cl)C(=O)O`
RESULT: no (0)

QUERY: Outcome logged for `O=C(O)c1ccccc1Nc1cc(Cl)ccc1C(=O)O` in this assay:
RESULT: no (0)

QUERY: Could you kindly confirm the outcome this assay logged for COc1cc([N+](=O)[O-])ccc1N=NC(C(C)=O)C(=O)Nc1ccccc1OC (configuration not stated) ?
RESULT: no (0)

QUERY: Which outcome did this test record for the compound `CCOS(=O)(=O)c1ccc(C)cc1` ?
RESULT: yes (1)

QUERY: Which outcome was entered for the compound `CN(C)CCCN1c2ccccc2Sc2ccc(Cl)cc21` in this test?
RESULT: no (0)

QUERY: Status in this test for `Cc1snc2ccccc12` ?
RESULT: no (0)

QUERY: Status in this test for `Cc1ccc2nsc(NC(=O)C(Cl)Cl)c2c1` ?
RESULT: no (0)

QUERY: Answer briefly: the call reported for CCCCC(CC)COC(=O)c1ccc(N(C)C)c([N+](=O)[O-])c1 (configuration not stated) in this assay.
RESULT: no (0)

QUERY: Could you check what this test reported for `C=COc1ccc([N+](=O)[O-])cc1` ?
RESULT: no (0)

QUERY: Hey, what did the test say about `CSCCC(=O)N1[C@@H](c2ccccc2O)SC[C@H]1C(=O)O` ?
RESULT: no (0)

QUERY: Hi team, can someone confirm the assay call for `COC(=O)c1ccc(O)cc1` ?
RESULT: no (0)

QUERY: What outcome does the record of this test show for `C[n+]1c2ccccc2nc2ccccc21` ?
RESULT: no (0)

----------
test system: CCRIS mutagenicity, Ames/micronucleus/aberration tests; assay: CCRIS mutagenicity studies; conditions: Test System: AMES SALMONELLA TYPHIMURIUM; Strain/Indicator: TA100; Metabolic Activation: HAMSTER, LIVER, S-9, AROCLOR 1254 (10%); Method: PREINCUBATION
Calls of active or inactive are those of the source. How the calls were made is not given here.
Respond using exactly one of the listed classes: true (active), false (inactive)

compound	assigned.label
CN(C)CCN(Cc1ccc(Cl)s1)c1ccccn1	false
Cc1ccc(C(C)(C)C)cc1	false
c1ccc2c(c1)Nc1ccccc1S2	false
C=C(C)C#N	false
O=C1CCC(=O)O1	false

QUERY: Field: outcome | Entry: `CCC[CH2][Sn]([CH2]CCC)([O]C(C)=O)[O]C(C)=O`
RESULT: false

QUERY: Which outcome was entered for the compound `CC(=O)/C(C)=N/O` in this test?
RESULT: false

----------
system: CCRIS mutagenicity, Ames/micronucleus/aberration tests; test: CCRIS mutagenicity studies; settings: Test System: AMES SALMONELLA TYPHIMURIUM; Strain/Indicator: TA97; Metabolic Activation: RAT, LIVER, S-9, AROCLOR 1254; Method: STANDARD PLATE
Activity calls are given as the source filed them. No rule for the calls is given here.
In this exercise, the only acceptable responses are yes (1) (active), no (0) (inactive)

molecule	assigned.label
ClC1C(Cl)C(Cl)C(Cl)C(Cl)C1Cl (stereo not given)	no (0)

QUERY: Any idea what this test logged for `ClCC(Cl)Cl` ?
RESULT: yes (1)

QUERY: Hello, I am checking results. What call was entered for `O=C(O)CC[C@H](NC(=O)COc1cc(Cl)c(Cl)cc1Cl)C(=O)O` ?
RESULT: no (0)

QUERY: How did this test come out for `Fc1ccccn1` ?
RESULT: no (0)

QUERY: # lookup: test call for `COc1ccc2[nH]cc(CCNC(C)=O)c2c1`
RESULT: no (0)

----------
test system: CCRIS mutagenicity, Ames/micronucleus/aberration tests; assay: CCRIS mutagenicity studies; settings: Test System: AMES SALMONELLA TYPHIMURIUM; Strain/Indicator: TA100; Metabolic Activation: NONE; Method: STANDARD PLATE
The source made the active and inactive calls. How the calls were made is not given here.
Write down one outcome, taken from Y (active), N (inactive)

Check out these entries, answers already filled in.
compound	assigned.label
Nc1ccc(CCc2ccccc2)cc1	N
Cc1cn2c([N+](=O)[O-])c(-c3ccc([N+](=O)[O-])cc3)nc2s1	Y
COC(COC(N)=O)C1=C(N2CC2)C(=O)C(C)=C(N2CC2)C1=O (centres undefined)	Y
CCCOc1cc(N=Nc2ccccc2)ccc1N=Nc1c(S(=O)(=O)O)cc2ccc(N)cc2c1O	N
O=C(O)CC[C@H](NC(=O)COc1cc(Cl)c(Cl)cc1Cl)C(=O)O	N
Cc1ccc(C)o1	N
CCOCCO	N
C=CCc1ccc(O)cc1	N

QUERY: Hi team, can someone confirm the assay call for `COC1=CC=CC=CC1` ?
RESULT: N

QUERY: // outcome(item) with item = `CC(=O)[C@]1(O)Cc2c(O)c3c(c(O)c2[C@@H](O)C1)C(=O)c1c(O)cccc1C3=O`
RESULT: N

QUERY: What is the recorded call for this compound in the test? `CCCCOc1cc(C)ccc1C(=O)NOC(C)=O`
RESULT: Y

QUERY: Would you mind telling me which call this test gave `CNc1ccc(N(CCO)CCO)cc1[N+](=O)[O-]` ?
RESULT: N

QUERY: I'd appreciate the recorded outcome for CCC1(C)CO1 (centres undefined) from this test.
RESULT: N

----------
System: CCRIS mutagenicity, Ames/micronucleus/aberration tests
Test: CCRIS mutagenicity studies
Settings: Test System: AMES SALMONELLA TYPHIMURIUM; Strain/Indicator: TA100; Metabolic Activation: RAT, LIVER, S-9, PHENOBARBITAL AND 5,6-BENZOFLAVONE; Method: PREINCUBATION
Source text: The CCRIS database contains chemical records with carcinogenicity, mutagenicity, tumor promotion, and tumor inhibition test results. It was developed by the National Cancer Institute (NCI). Data are derived from studies cited in primary journals, current awareness tools, NCI reports, and other sources. Test results have been reviewed by experts in carcinogenesis and mutagenesis. CCRIS provides historical information from the years 1985 - 2011. It is no longer updated. […]
Active and inactive are the calls of the source. No rule for the calls is given here.
Please answer using one outcome listed in label 1 (active), label 0 (inactive)

Please review the entries below; each comes with its answer.
compound	assigned.label
Nc1cccc2ncccc12	label 1
Fc1cccc2ccc3ncccc3c12	label 1
Fc1cc2ccccc2c2ncccc12	label 1
COc1cc(OC)c2c(=O)c3cc(OC)ccc3oc2c1	label 1
O=[N+]([O-])c1ccc2c3c1ccc1cccc(c13)[C@@H]1O[C@H]21	label 1

QUERY: Look up the recorded call for `Fc1cc2cccnc2c2ncccc12` in this test.
RESULT: label 1
